- ASSAY_PROTOCOL: Pharmacokinetics of OC246 after single oral administration
- Assay type: in vivo, female NMRI mice
- EXPERIMENTAL_PARAMETERS: female, NMRI, mouse, blood; single oral 50 mg/kg; mean
MEASURED_PARAMETER: AUC(0-t) (ng·h/mL)
Give the number; ng·h/mL is assumed, so skip it.

[in] Entry under review: Cc1ccc(CN2C(=O)c3ccccc3[C@H](C(=O)Nc3cccc(N4CCN(C)CC4)c3)[C@@H]2c2ccc(C(F)(F)F)cc2)cc1 [OC246] . Reported AUC(0-t)?
[out] 11500

* * *

- ASSAY_PROTOCOL: Pharmacokinetics of OC246 after single oral administration
- Assay type: in vivo, female NMRI mice
- EXPERIMENTAL_PARAMETERS: female, NMRI, mouse, blood; single oral 50 mg/kg, Lipoid S100 and Myritol 318; mean
- Experimental: Pharmacokinetics were assessed for OC246 after single oral (p.o.) administration in female NMRI mice. The compound OC246 was suspended at 50 mg/kg with Lipoid S100 and Myritol 318. Oral dose was 50 mg/kg, Final Concentration 10 mg/ml and Administration Volume 5.0 ml/kg. Blood samples were taken from three mice at individual time points after 0.25, 0.5, 1, 2, 4, 6, 8, 16, and 24 hours from administration, and analyzed using HPLC and mass-spectroscopic bioanalytical methods. […]
MEASURED_PARAMETER: Tmax (h)
Note: unit h is implicit; provide only the numeric part.

[in] Value lookup for Tmax; key = Cc1ccc(CN2C(=O)c3ccccc3[C@H](C(=O)Nc3cccc(N4CCN(C)CC4)c3)[C@@H]2c2ccc(C(F)(F)F)cc2)cc1 [OC246]
[out] 2

* * *

Kindly supply the reported half-life values for the records listed here.
- ASSAY_PROTOCOL: Pharmacokinetics of VSP034 and VSP035 after oral administration of a liposomal formulation
- Assay type: in vivo, female Sprague-Dawley rats
- EXPERIMENTAL_PARAMETERS: female, Sprague-Dawley, rat, in vivo, po, 100 mg/kg, t1/2, Median
- Protocol: The pharmacokinetic parameters of VSP034 and VSP035 encapsulated as liposomal formulation were assessed after the administration of a single 100 mg/kg dose by oral gavage to 6 female Sprague-Dawley rats weighting 250 grams (+25 g). The animals were randomized into two experimental groups (Groups 1 and 2), each composed of 3 rats. […] The animals were weighted immediately before the dosing to assess the proper dose and carefully monitored during the experiment. […]
Give the number first and the unit second.

[in] For the compound CN1CCC(CN2C(=O)c3ccccc3[C@@H](C(=O)Nc3cccc(N4CCN(C)CC4)c3)[C@@H]2c2ccc(C(F)(F)F)cc2)CC1 [VSP034] , what half-life is on record?
[out] 4.22 h

[in] Thanks! And CN1CCC(CN2C(=O)c3ccccc3[C@H](C(=O)Nc3cccc(N4CCN(C)CC4)c3)[C@H]2c2ccc(C(F)(F)F)cc2)CC1 [VSP035] ?
[out] 3.57 h

* * *

- Tested on: CaSki (ATCC CRM-CRL-1550)
- ASSAY_PROTOCOL: Monolayer assay using Sulphorhodamine B (SRB) staining, CaSki
- Format: cell-based
- EXPERIMENTAL_PARAMETERS: Homo sapiens, Ca-Ski, read-out: EC50 mean [nM]
Please respond with reported EC50 for every item in the list.
Provide only the numeric value, understood in nM.

[in] Hello, I am looking for reported EC50 with CaSki (ATCC CRM-CRL-1550) for Cc1ccc(CN2C(=O)c3ccccc3[C@@H](C(=O)Nc3ccc(N4CCN(C)CC4)cc3)[C@@H]2c2ccc(C(F)(F)F)cc2)cc1 (relative stereo) . Could you help?
[out] 67700

[in] Try the compound Cc1ccc(CN2C(=O)c3ccccc3[C@@H](C(=O)Nc3cccc(N4CCOCC4)c3)[C@@H]2c2ccc(C(F)(F)F)cc2)cc1 (relative stereo)
[out] 6720

[in] Could you do the same for Cc1ccc(CN2C(=O)c3ccccc3[C@@H](C(=O)Nc3cccc(N4CCN(C)CC4)c3)[C@@H]2c2ccc(C(F)(F)F)nc2)cc1 (relative stereo) , please?
[out] 10600

[in] Same again, this time with Cc1ccc(CN2C(=O)c3ccccc3[C@H](C(=O)Nc3cccc(N4CCN(C)CC4)c3)[C@@H]2c2ccc(C(F)(F)F)cc2)cc1
[out] 3050

[in] Cc1ccc(CN2C(=O)c3ccccc3C(C(=O)Nc3cccc(N4CCN(C)CC4)c3)C2c2ccc(Br)cc2)cc1 (stereo not drawn) ?
[out] 6730

[in] Next record, please: CN1CCN(c2cccc(NC(=O)[C@@H]3c4ccccc4C(=O)N(Cc4cccnc4)[C@H]3c3ccc(C(F)(F)F)cc3)c2)CC1 (relative stereo)
[out] 4720

[in] Same lookup for CN1CCC(CN2C(=O)c3ccccc3[C@@H](C(=O)Nc3cccc(N4CCN(C)CC4)c3)[C@@H]2c2ccc(C(F)(F)F)cc2)CC1 [VSP034] , please.
[out] 3590

[in] Another compound: CN1CCC(CN2C(=O)c3ccccc3[C@H](C(=O)Nc3cccc(N4CCN(C)CC4)c3)[C@H]2c2ccc(C(F)(F)F)cc2)CC1
[out] 3750

[in] Repeat with CN1CCC(CN2C(=O)c3ccccc3[C@@H](C(=O)Nc3cccc(N4CCN(C)CC4)c3)[C@@H]2c2ccc(C(F)(F)F)cc2)CC1 (racemic) [OC974]
[out] 1550

[in] Input CC(=O)Nc1ccc2c(c1)C(=O)N(Cc1ccc(C)cc1)[C@@H](c1ccc(C(F)(F)F)cc1)[C@@H]2C(=O)Nc1cccc(N2CCN(C)CC2)c1 (relative stereo)
[out] 5550

[in] // query: CN1CCN(c2cccc(NC(=O)[C@@H]3c4ccccc4C(=O)N(Cc4ccncc4)[C@H]3c3ccc(C(F)(F)F)cc3)c2)CC1 (relative stereo)
[out] 4340

[in] Repeat with Cc1ccc(CN2C(=O)c3ccccc3C(C(=O)NCCN(C)C)C2c2ccc(C(F)(F)F)nc2)cc1 (stereo not drawn)
[out] 17500

* * *

- ASSAY_PROTOCOL: Pharmacokinetics of VSP034 and VSP035 after oral administration of a liposomal formulation
- Assay type: in vivo, female Sprague-Dawley rats
- EXPERIMENTAL_PARAMETERS: female, Sprague-Dawley, rat, in vivo, po, 100 mg/kg, MRT0-inf, Mean
Assignment: determine reported MRT inf for the given compounds.
# unit: h | format: bare number

[in] # query: MRT inf of entry CN1CCC(CN2C(=O)c3ccccc3[C@@H](C(=O)Nc3cccc(N4CCN(C)CC4)c3)[C@@H]2c2ccc(C(F)(F)F)cc2)CC1 [VSP034]
[out] 6.72

[in] # repeat for CN1CCC(CN2C(=O)c3ccccc3[C@H](C(=O)Nc3cccc(N4CCN(C)CC4)c3)[C@H]2c2ccc(C(F)(F)F)cc2)CC1 [VSP035]
[out] 6.83

* * *

- ASSAY_PROTOCOL: Pharmacokinetics of VSP034 and VSP035 after oral administration of a liposomal formulation
- Format: in vivo, female Sprague-Dawley rats
- EXPERIMENTAL_PARAMETERS: female, Sprague-Dawley, rat, in vivo, po, 100 mg/kg, t1/2, Mean
MEASURED_PARAMETER: half-life (h)
Write it as a number; the unit h goes unstated.

[in] What does the data say about its half-life? Entry: CN1CCC(CN2C(=O)c3ccccc3[C@H](C(=O)Nc3cccc(N4CCN(C)CC4)c3)[C@H]2c2ccc(C(F)(F)F)cc2)CC1
[out] 4.43

[in] Similarly, CN1CCC(CN2C(=O)c3ccccc3[C@@H](C(=O)Nc3cccc(N4CCN(C)CC4)c3)[C@@H]2c2ccc(C(F)(F)F)cc2)CC1 ?
[out] 4.33

* * *

- ASSAY_PROTOCOL: Pharmacokinetics of OC246 after single oral administration
- Assay type: in vivo, female NMRI mice
- EXPERIMENTAL_PARAMETERS: female, NMRI, mouse, blood; single oral 50 mg/kg; mean; read-out: AUCinf(obs)
MEASURED_PARAMETER: AUC(0-inf) (ng·h/mL)
Please give a number only; it is taken to be in ng·h/mL.

[in] Field request: AUC(0-inf) | item: Cc1ccc(CN2C(=O)c3ccccc3[C@H](C(=O)Nc3cccc(N4CCN(C)CC4)c3)[C@@H]2c2ccc(C(F)(F)F)cc2)cc1
[out] 11500

* * *

- ASSAY_PROTOCOL: Pharmacokinetics of VSP034 and VSP035 after oral administration of a liposomal formulation
- Format: in vivo, female Sprague-Dawley rats
- EXPERIMENTAL_PARAMETERS: female, Sprague-Dawley, rat, in vivo, po, 100 mg/kg, Tmax, Median
MEASURED_PARAMETER: Tmax
Write the quantity with the unit trailing the number.

[in] Name the recorded Tmax for CN1CCC(CN2C(=O)c3ccccc3[C@H](C(=O)Nc3cccc(N4CCN(C)CC4)c3)[C@H]2c2ccc(C(F)(F)F)cc2)CC1 [VSP035] .
[out] 1 h

[in] Continue with CN1CCC(CN2C(=O)c3ccccc3[C@@H](C(=O)Nc3cccc(N4CCN(C)CC4)c3)[C@@H]2c2ccc(C(F)(F)F)cc2)CC1 [VSP034]
[out] 1 h
